- study system: Rac GTPase-activating protein 1 (Homo sapiens) (UniProt Q9H0H5)
- Sequence (Q9H0H5 whole entry, looked up): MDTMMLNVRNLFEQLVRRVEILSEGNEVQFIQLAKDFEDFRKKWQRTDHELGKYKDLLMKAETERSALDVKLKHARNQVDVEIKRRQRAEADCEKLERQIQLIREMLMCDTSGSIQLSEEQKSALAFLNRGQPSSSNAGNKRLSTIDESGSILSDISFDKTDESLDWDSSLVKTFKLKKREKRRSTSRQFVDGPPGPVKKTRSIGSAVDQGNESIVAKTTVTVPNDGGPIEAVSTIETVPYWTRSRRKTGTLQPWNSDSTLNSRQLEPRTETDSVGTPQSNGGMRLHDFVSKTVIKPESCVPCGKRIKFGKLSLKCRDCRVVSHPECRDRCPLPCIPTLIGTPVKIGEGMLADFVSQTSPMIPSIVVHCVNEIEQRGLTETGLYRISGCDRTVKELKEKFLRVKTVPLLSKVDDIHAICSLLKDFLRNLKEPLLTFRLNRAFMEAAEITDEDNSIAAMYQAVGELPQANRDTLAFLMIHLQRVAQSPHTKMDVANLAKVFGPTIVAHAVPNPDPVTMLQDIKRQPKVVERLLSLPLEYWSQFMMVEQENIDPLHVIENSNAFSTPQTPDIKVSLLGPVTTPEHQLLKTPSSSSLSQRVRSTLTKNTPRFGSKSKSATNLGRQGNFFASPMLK
- test name: blockers of MgcRacGAP-driven Rac1 GTP hydrolysis – biochemical, ADP Hunter fluorescence, primary and confirmatory, confirmation (AID 624330);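 also: fluorescence reports GDP produced by GAP-driven GTP hydrolysis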
- condition: MgcRacGAP-stimulated Rac1 GTP hydrolysis, at 30 µM, hits give high values, GST-tagged Rac1 F28L mutant substrate
Screen size: about 340,000 compounds; about 2,100 (0.62%) were called active. A selection follows. Measured potencies and affinities stand elsewhere.
Okay, here is how we bin by inhibition: band 1 (below 5%), band 2 (5% to below 9%), band 3 (9% or more)

> print(dat)
                                    compound  assigned.class
 1  O=S(=O)(c1ccc(Cl)c(NC(=S)N/N=C/c2c(F)cccc2F)c1)N1CCOCC1          band 3
 2      CC(=O)Nc1ccc(N2CCN(Cc3ccccc3)CC2)cc1          band 3
 3           S=C(N/N=C/c1ccc(Cl)cc1)N1CCOCC1          band 1
 4  CCOC(=O)c1c(C)sc(Sc2ccc(Cl)cc2[N+](=O)[O-])c1OC          band 1
 5           CCOC(=O)c1sc(=S)n(Cc2ccccc2)c1C          band 2
 6      Cc1ccc(-c2cc3c(nn2)-c2ccccc2C3=O)cc1          band 3
 7  Cc1ccc(NC(=O)C2CCCN(C(=O)NCc3ccccc3)C2)c(C)c1 (stereo unspecified)          band 2
 8  O=[N+]([O-])c1cc(Cl)cc(/C=N/NC(=S)Nc2cc(S(=O)(=O)N3CCOCC3)ccc2Cl)c1O          band 3
 9  COc1ccc(CNC(=O)CN2CCN(c3ccc(F)cc3)CC2)cc1          band 2
10            Cc1ccc(/C=N/NC(=S)N2CCOCC2)cc1          band 1

====

// inhibition lookup, one value per entry
- study system: Rac GTPase-activating protein 1 (Homo sapiens) (UniProt Q9H0H5)
- test name: blockers of MgcRacGAP-driven Rac1 GTP hydrolysis – biochemical, ADP Hunter fluorescence, primary and confirmatory, confirmation (AID 624330);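 also: fluorescence reports GDP produced by GAP-driven GTP hydrolysis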
- condition: MgcRacGAP-stimulated Rac1 GTP hydrolysis, at 30 µM, hits give high values, GST-tagged Rac1 F28L mutant substrate
The whole screen tested about 340,000 compounds, of which about 2,100 (0.62%) were called active. A selection follows. Potency and affinity values are given separately.

molecule	inhibition, %
Cc1ccc(N/C=C/C(=O)c2cccs2)cc1	1.9
CN(C)c1ccc(C=NNC(=O)c2cccnc2)cc1	1.95
Cc1ccc(C(=O)COc2ccc3ccc(=O)oc3c2)cc1	8.86
CC(Oc1ccccc1)C(=O)Nc1cccc(F)c1 (stereo not given)	3.1
O=C(C1CCN(S(=O)(=O)N2CCCCC2)CC1)N1CCCCC1	6.28
CCOc1ccc(CCNC(=O)COC(=O)c2ccc(OC(C)C)cc2)cc1OCC	-0.74
O=C(CN(CC1CCCO1)C(=O)Cn1nnc(-c2ccc(F)cc2)n1)NC1CCCCC1 (stereo not given)	3.03
CN(C)c1ccc(/C=C/c2ccncc2)cc1	16.4
COC(=O)[C@]1(Cc2ccccc2)N[C@H](CN(C)C(=O)c2ccc(F)cc2)[C@@H]2C(=O)N(C)C(=O)[C@@H]21	1.31
COc1ccc2ccccc2c1CNCCCN1CCOCC1	5.19
O=C(Oc1ccc2c(c1)OCC2=O)c1ccccc1	0.9
CC(C)Cc1ccc(C(=O)NCCOc2ccccc2)o1	5.6
CCc1ccc(C2=NN(CCC(=O)NCC3CCCO3)C(=O)CC2)cc1 (stereo not given)	11.8
CC1CCCCN1CC(=O)Nc1ccc(Oc2ccccc2)cc1 (stereo not given)	9.36
Cc1cccc(C)c1OCC(O)CN1CCN(c2ccccc2)CC1 (stereo not given)	4.36
CC1CCCC(NC(=O)COC(=O)/C=C/c2ccco2)C1C (stereo not given)	2.8
O=C(N/N=C\c1ccccn1)C1COc2cc3ccccc3cc2O1 (stereo not given)	15.9
O=C(/C=C/c1cn(-c2ccccc2)nc1-c1cccnc1)NCCN1CCOCC1	11.7
C#CCOCCOCCOCCNc1nc(N2CCN(C(=O)CCCCCCCCCCNC(=O)[C@@H](CCC(=O)O)n3cc(CCCCCN)nn3)CC2)nc(N2CCN(C(=O)CCCCCCCCCCNC(=O)[C@@H](CCC(=O)O)n3cc(CCCCCN)nn3)CC2)n1	0.63
C/C(=N/OCC(=O)Nc1ccccc1)c1cccs1	6.14
CCOC(=O)/C=C/c1cnn(-c2ccccc2)c1	6.95
O=C(c1ccccc1)c1c[nH]c(C(=O)NCc2cccnc2)c1	-1.95
CCN1C[C@@H]2[C@@H]3C(=O)N(Cc4ccccc4)C(=O)[C@@H]3[C@](Cc3ccccc3)(C1=O)N2C(=O)c1ccc(Cl)cc1	6.26
COc1ccc(CNC(=O)CN(C)Cc2ccc(SC)cc2)cc1	9.14
CSc1ccc(CN(C)CC(=O)NCc2ccccc2)cc1	4.61
COc1cccc(OC)c1OCCCN1CCC(Cc2ccccc2)CC1	28
O=C1CSC(=S)N1c1ccccc1	-7.87
COc1ccc(CN2C(=O)c3ccccc3C2=O)cc1C(=O)OCC(=O)NC1CCCCC1	7.94
Cc1cc(C(=O)N(NC(=O)C(C)C)c2ccccc2)cs1	5.75
CNS(=O)(=O)c1ccc(C(=O)NCC(=O)NCC2COc3ccccc3O2)cc1 (stereo not given)	3.68
Cc1ccc(/C=C(/C#N)c2nc(CCN3C(=O)c4ccccc4C3=O)cs2)cc1	9.96
O=C(Nc1cccnc1)c1ccccc1F	6.52
CCC(CC)C(=O)c1c[nH]c(C(=O)O)c1	6.73
Cc1cc(=O)oc(C)c1C(=O)NCCCN1CCN(c2ccccc2F)CC1	6.67
CC(C)CC(OC(=O)c1nsc(Cl)c1Cl)C(=O)NCC1CCCO1 (stereo not given)	5.99
CC(=O)c1c(Nc2cccc(F)c2)oc(C)cc1=O	8.68
O=C(/C=C/c1ccco1)NC(=S)Nc1ccccc1	10.7
COc1ccc(N2CCN(C(CNC(=O)OCc3ccccc3)c3ccco3)CC2)cc1 (stereo not given)	23
CSc1nc(C)c(C(=O)C[n+]2ccccc2)cc1C#N	5.97
Cc1ccc(P(=O)(O)c2ccc(C)cc2)cc1	8.6
Cc1ccn2cc(C(=O)N3CCN(c4cnn(-c5ccccc5)c(=O)c4Cl)CC3)nc2c1	2.32
CN(C)c1ccc(/C=C/C(=O)c2cccnc2)cc1	10.2
Cc1ccccc1Nc1nc(N)nc(COC(=O)c2ccc3c(c2)OCCO3)n1	12.6
O=C(COc1ccccc1)NN1C(=O)CSC1=S	6.09
O=C(/C=C/Nc1ccc(F)cc1)c1cccs1	8.26

====

- study system: Rac GTPase-activating protein 1 (Homo sapiens)
- test name: blockers of MgcRacGAP-driven Rac1 GTP hydrolysis – biochemical, ADP Hunter fluorescence, primary and confirmatory, confirmation (AID 624330);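 also: fluorescence reports GDP produced by GAP-driven GTP hydrolysis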
- condition: MgcRacGAP-stimulated Rac1 GTP hydrolysis, at 30 µM, hits give high values, GST-tagged Rac1 F28L mutant substrate
About 2,100 (0.62%) of roughly 340,000 compounds were called active. A selection follows. Entries with a potency or affinity are not part of this list.
readout: inhibition (%)

> print(dat)
                                    molecule  value.unit  recorded.number
 1                CCN1CCN(C(=O)NC2CCCCC2)CC1           %             30.1
 2    O=C(COc1ccc2ccc(=O)oc2c1)N1CCc2ccccc21           %             -9.6
 3  CCN(CC)CCSc1nc(O)c(Cc2ccccc2)c(=O)n1-c1ccccc1           %             2.56
 4  O=C(Nc1ccc2nc(-c3cccnc3)[nH]c2c1)c1ccccc1F           %             5.15
 5         CCN1/C(=C2/SC(=S)NC2=O)Sc2ccccc21           %             1.71
 6          Nc1ccc(C(=O)C(=O)c2ccc(N)cc2)cc1           %             6.66
 7    CC(=O)c1ccc(NC(=O)CCCC(=O)c2ccccc2)cc1           %             8.95
 8     Cc1ccc(SCC(=O)Nc2ccc(N3CCOCC3)cc2)cc1           %             9.38
 9  COc1ccc(CN2CCNC(=O)C2CC(=O)NCCc2nc(C)c3c(n2)CCC3)cc1C (stereo unspecified)           %             3.36
10  Cc1[nH]c(=S)c(C#N)c(C)c1CC(=O)c1ccc(Br)cc1           %             8.21
11  Cc1ccccc1S(=O)(=O)N(C)C[C@@H]1OCc2ccccc2-c2c(n(C)c3ccccc23)C(=O)N([C@H](C)CO)C[C@@H]1C           %             14.2
